Each entry below carries its reported Spleen uptake.
# Test system: mice bearing PSMA-expressing LNCAP cancer xenografts
# testProtocol: Biodistribution of 68Ga-labeled compounds
# Assay type: in vivo
# conditionNotes: 1 h post-injection
A number alone suffices; assume % ID/g.

Query :: Report Spleen uptake for O=C([O-])CN1CCN(CC(=O)[O-])CCN(CC(=O)NCCCC[C@H](NC(=O)CNC(=O)CCCc2ccc(Cl)cc2)C(=O)NC[C@H]2CC[C@H](C(=O)N[C@@H](Cc3ccc4ccccc4c3)C(=O)NCCCC[C@H](NC(=O)N[C@@H](CCC(=O)O)C(=O)O)C(=O)O)CC2)CCN(CC(=O)[O-])CC1.[68Ga+3] [^68Ga-HTK03055] please.
Result :: 3.05

Query :: Now consider COc1ccc(CCCC(=O)NCC(=O)N[C@@H](CCCCNC(=O)CN2CCN(CC(=O)[O-])CCN(CC(=O)[O-])CCN(CC(=O)[O-])CC2)C(=O)NC[C@H]2CC[C@H](C(=O)N[C@@H](Cc3ccc4ccccc4c3)C(=O)NCCCC[C@H](NC(=O)N[C@@H](CCC(=O)O)C(=O)O)C(=O)O)CC2)cc1.[68Ga+3] [^68Ga-HTK03086] and answer again.
Result :: 2.18

Query :: Again, but for O=C([O-])CN1CCN(CC(=O)[O-])CCN(CC(=O)NCCCC[C@H](NC(=O)CNC(=O)CCCc2ccc(F)cc2)C(=O)NC[C@H]2CC[C@H](C(=O)N[C@@H](Cc3ccc4ccccc4c3)C(=O)NCCCC[C@H](NC(=O)N[C@@H](CCC(=O)O)C(=O)O)C(=O)O)CC2)CCN(CC(=O)[O-])CC1.[68Ga+3] [^68Ga-HTK03085]
Result :: 3.90

Query :: What would you report for O=C([O-])CN1CCN(CC(=O)[O-])CCN(CC(=O)NCC2CCC(C(=O)NC(Cc3ccc4cc5ccccc5cc4c3)C(=O)NCCCCC(NC(=O)NC(CCC(=O)O)C(=O)O)C(=O)O)CC2)CCN(CC(=O)[O-])CC1.[68Ga+3] (stereo not shown) [^68Ga-HTK03027] ?
Result :: 3.36
